assaySystem: 5-HT2C (Homo sapiens, UniProt P28335)
Construct: host or cells: HEK293
assayProtocol: FLIPR Ca2+ flux functional assay, 5-HT2C receptor (stably transfected HEK293)
Assay type: cell-based
setupConditions: agonist activity, Ca2+ flux, HEK293; read-out: 5-HT2C EC50
pEC50: −log10 of the molar value.
pEC50 below 6 gives False; pEC50 at or above it gives True.

// below: answered compounds
COc1cccc2cccc(CCN(C(C)C)C(C)C)c12 [Example I-24] | False
COc1cnc2cccc(CCN(C)C)c2c1 [Example I-9] | False
CN(CCc1cccc2cccc(O)c12)C1CC1 [Example I-31] | True

--- query ---
Form field: pEC50 at least 6? Entry: COc1ccc2cccc(CCN(C)C3CC3)c2c1 [Example I-15]
True

---

assayProtocol: In vivo pharmacokinetics: plasma and brain exposure after IP administration
Design: species or system male C57BL/6 mice
setupConditions: male, C57BL/6, mouse, brain, ip, 10 mg/kg, 0.5 h, n = 3, read-out: Brain Parenchyma Concentration (μM) Mean ± SD
measurementLabel: concentration at 0.5 h
The reply should read as a number followed by its unit.

COc1ccc2cccc(CCN(C)C3CC3)c2c1 | 6.18 µM

Would you kindly look at the next entry?
Could you tell me which concentration at 0.5 h is on file for COc1ccc2cccc(CCN(C)C(C)C)c2c1 ?
25.2 µM

---

As shown below, each of these compounds has a reported Emax value.
assaySystem: 5-HT2A (Homo sapiens, UniProt P28223)
Construct: host or cells: HEK293
Sequence (P28223 whole entry): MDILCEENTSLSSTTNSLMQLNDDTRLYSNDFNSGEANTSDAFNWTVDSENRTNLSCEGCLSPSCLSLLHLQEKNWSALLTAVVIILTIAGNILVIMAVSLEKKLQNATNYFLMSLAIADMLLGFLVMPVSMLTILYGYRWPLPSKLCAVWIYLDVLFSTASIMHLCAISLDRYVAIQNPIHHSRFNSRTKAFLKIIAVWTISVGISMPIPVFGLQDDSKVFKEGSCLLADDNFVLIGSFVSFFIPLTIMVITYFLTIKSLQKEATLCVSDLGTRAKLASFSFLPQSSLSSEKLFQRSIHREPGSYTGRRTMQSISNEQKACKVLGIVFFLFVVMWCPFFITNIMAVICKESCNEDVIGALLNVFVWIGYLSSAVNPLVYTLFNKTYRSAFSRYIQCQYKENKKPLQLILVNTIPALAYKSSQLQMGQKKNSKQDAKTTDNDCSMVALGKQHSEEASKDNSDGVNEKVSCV
assayProtocol: FLIPR Ca2+ flux functional assay, 5-HT2A receptor (stably transfected HEK293)
Type: cell-based
setupConditions: agonist activity, Ca2+ flux, HEK293
Reply numerically in %, unit not repeated.

Recorded results for 2 compounds are shown here.
COc1ccc2cccc(CCN(C(C)C)C(C)C)c2c1 [Example I-4] | 111
COc1cnc2cccc(CCN(C)C)c2c1 [Example I-9] | 39

// next item, Emax requested
Look up Emax for this compound: CCN(CC)CCc1cccc2ccc(OC)cc12 [Example I-2]
70

---

Here, each record is paired with measured Emax data.
assaySystem: 5-HT2A (Homo sapiens, UniProt P28223)
Construct: host or cells: HEK293
assayProtocol: FLIPR Ca2+ flux functional assay, 5-HT2A receptor (stably transfected HEK293)
Assay type: cell-based
setupConditions: agonist activity, Ca2+ flux, HEK293
Could you give me the number in %? Just the number is fine.

The cases that follow already have their Emax on record.
COc1cccc2cccc(CCN(C(C)C)C(C)C)c12 | 98
CCN(C)CCc1cccc2cccc(O)c12 | 68
COc1ccc2cccc(CCN(C)C(C)C)c2c1 | 84

Hello, I am looking for reported Emax with 5-HT2A (Homo sapiens, UniProt P28223) for CCN(CC)CCc1cccc2cccc(OC)c12 . Could you help?
85

Same thing, different molecule: NCCc1cccc2ccc(F)cc12
83

Subsequent entry: CCN(C)CCc1cccc2ccc(OC)cc12
63

And what about the molecule CN(C)CCc1cccc2cccc(O)c12 ?
73

Now try CN(CCc1cccc2cccc(O)c12)C1CC1 .
64

---

Below: a set of entries, each annotated with reported Emax.
assaySystem: 5-HT2C (Homo sapiens)
Construct: host or cells: HEK293
Sequence (P28335 33-458): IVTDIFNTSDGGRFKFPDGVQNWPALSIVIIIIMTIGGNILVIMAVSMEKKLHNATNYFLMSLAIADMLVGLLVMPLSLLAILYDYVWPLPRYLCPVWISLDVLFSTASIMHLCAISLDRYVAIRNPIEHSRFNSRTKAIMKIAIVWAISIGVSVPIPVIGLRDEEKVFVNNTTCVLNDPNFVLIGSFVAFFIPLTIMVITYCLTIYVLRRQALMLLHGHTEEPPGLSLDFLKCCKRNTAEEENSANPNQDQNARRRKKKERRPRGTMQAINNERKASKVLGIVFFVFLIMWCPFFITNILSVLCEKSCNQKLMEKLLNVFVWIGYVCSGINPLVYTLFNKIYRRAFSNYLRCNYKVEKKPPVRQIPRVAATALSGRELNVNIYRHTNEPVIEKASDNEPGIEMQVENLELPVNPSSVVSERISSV
assayProtocol: FLIPR Ca2+ flux functional assay, 5-HT2C receptor (stably transfected HEK293)
Type: cell-based
setupConditions: agonist activity, Ca2+ flux, HEK293
Number only, in %; omit the unit.

Worked cases, Emax given:
COc1ccc2cccc(CCN(C)C)c2c1 | 82
CN(CCc1cccc2ccc(F)cc12)C1CC1 | 80
COc1ccc2cccc(CCN(C)C3CC3)c2c1 | 65
CCN(CC)CCc1cccc2cccc(OC)c12 | 95
COc1ccc2cccc(CCN(C(C)C)C(C)C)c2c1 | 99
NCCc1cccc2ccc(F)cc12 | 97
CCN(C)CCc1cccc2cccc(O)c12 | 86
CC(C)N(C)CCc1cccc2cccc(O)c12 | 84

Sample CCN(C)CCc1cccc2ccc(F)cc12 — what was its Emax?
93

Entry CCN(C)CCc1cccc2ccccc12 please
67

Same for COc1cccc2c(CCN)cccc12
91

Try the molecule COc1cccc2cccc(CCN(C)C(C)C)c12
76

Lookup CN(C)CCc1cccc2ccc(Cl)cc12
87

Also, COc1cccc2cccc(CCN(C)C3CC3)c12 please.
60

Same question for CN(CCc1cccc2cccc(O)c12)C1CC1 please.
57

Next molecule up: CCCN(CCC)CCc1cccc2ccc(OC)cc12
97

Now consider COc1cnc2cccc(CCN(C)C)c2c1 .
65

Follow-up item: CCN(CC)CCc1cccc2ccc(OC)cc12
88

And the next one, COc1ccc2cccc(CCN(C)C(C)C)c2c1 ?
56

---

assaySystem: 5-HT2A (Homo sapiens)
Construct: host or cells: HEK293
assayProtocol: FLIPR Ca2+ flux functional assay, 5-HT2A receptor (stably transfected HEK293)
Assay type: cell-based
measurementLabel: pEC50
Note on units: pEC50 is unitless, being -log10 of a concentration expressed in mol/L.

// known answers, use as guide
COc1ccc2cccc(CCN(C)C(C)C)c2c1 | 6.79
CCN(CC)CCc1cccc2ccc(OC)cc12 | 6.44
CCN(C)CCc1cccc2ccccc12 | 6.69

Next compound, pEC50 to be filled in.
Which value of pEC50 has been reported for NCCc1cccc2ccc(F)cc12 in the records?
7.47

---

assaySystem: 5-HT2A (Homo sapiens, UniProt P28223)
Construct: host or cells: HEK293
assayProtocol: FLIPR Ca2+ flux functional assay, 5-HT2A receptor (stably transfected HEK293)
Assay type: cell-based
setupConditions: agonist activity, Ca2+ flux, HEK293; read-out: 5-HT2A EC50
pEC50: −log10 of the molar value.
Response key: fulfilled means pEC50 >= 7; not fulfilled means pEC50 < 7.

Some solved entries appear below for comparison.
COc1cccc2cccc(CCN(C(C)C)C(C)C)c12 | not fulfilled
CCN(C)CCc1cccc2cccc(O)c12 | fulfilled

Does the reported pEC50 for CCCN(CCC)CCc1cccc2ccc(OC)cc12 fall at or above the 7 mark?
not fulfilled

Please answer likewise for CN(CCc1cccc2ccc(F)cc12)C1CC1
not fulfilled

Continue with CC(C)N(C)CCc1cccc2cccc(O)c12
fulfilled

Also check COc1ccc2cccc(CCN(C(C)C)C(C)C)c2c1
not fulfilled
